The following compounds were reported with pKi values on Beta-secretase 1 (Homo sapiens) in different studies.
Interpret pKi as the negative base-10 log of the concentration measured in mol/L.

Here's what some known entries look like.
*Q* Query: pKi; subject: COc1cnc(C(=O)Nc2ccc(F)c([C@]34COC[C@@]3(F)C[C@@](C)(F)C(N)=N4)c2)cn1
*A* 7.96

*Q* Another compound to look at: C[C@@]1(c2cc(NC(=O)c3ccn(C(F)F)n3)ccc2F)CC[C@@](F)(CF)C(N)=N1
*A* 7.66

*Q* Another compound to look at: COc1cccc2cc(-c3cc(Cl)c([C@]4(C)CS(=O)(=O)C5(CCCCC5)C(=N)N4)s3)[nH]c12
*A* 7.69

Next:
*Q* Query: pKi; subject: CN1C(=N)N[C@](C)(c2cc(NC(=N)c3ccc(Br)cn3)ccc2F)CS1(=O)=O
*A* 6.43
